test: ATG_GLI_CIS: Attagene CIS-FACTORIAL HepG2 Assay for human Zinc Finger Protein GLI1 (AID 2282945); conditions: HepG2, Attagene cis-factorial reporter mRNA, GLI element; actives raise or lower the signal
Activity calls are given as the source filed them. How the source made its calls: active means hit-call score of the fitted dose curve at least 0.9, where 1 is the maximum; inactive means score below 0.9.
Possible outcomes: 1 = active, -1 = inactive

• COc1ncc(F)c2nc(S(=O)(=O)Nc3c(F)cccc3F)nn12 = -1
• CC1(C)CC(=O)CC(C)(C)N1[O] = -1
• CCCCCCC1CCOC1=O (stereo not drawn) = -1
• CCCCCCCCCCCC#N = 1
• CCC(C)c1cc(C(C)(C)C)cc(-n2nc3ccccc3n2)c1O (stereo not drawn) = -1
• CNC(=N[N+](=O)[O-])NCC1CCOC1 (stereo not drawn) = -1
• CCOP(=O)(OCC)Oc1ccc([N+](=O)[O-])cc1 = -1
• CCC(=O)c1ccc(Cl)cc1 = -1
• O=[N+]([O-])O = -1
• O=C(CCN1CC1)OCC(CO)(COC(=O)CCN1CC1)COC(=O)CCN1CC1 = -1
• O=C(NC(=O)c1c(F)cccc1F)Nc1ccc(Oc2ccc(C(F)(F)F)cc2Cl)cc1F = -1
• O=[N+]([O-])O.O=[N+]([O-])O.[Cd] = 1
• CC(C)c1ccc(O)cc1 = -1

====

read-out: Matrix Metallopeptidase 1 (MMP1), MMP1 (gene 4312); test: BSK_hDFCGF_MMP1: BioMAP Diversity Plus: hDFCGF Assay for Matrix Metallopeptidase 1 (MMP1) Biomarker Activity (AID 2283064); settings: primary human foreskin fibroblasts; actives raise or lower the signal
The source made the active and inactive calls. The calls were made as follows: active = hit-call score of the fitted dose curve at least 0.9, where 1 is the maximum; inactive = score below 0.9.
Possible outcomes: yes (1) for active, no (0) for inactive

• COc1ccc(CO)cc1 = no (0)
• CNC(=O)Oc1cc(C)c(SC)c(C)c1 = no (0)
• C=CCN(CC=C)C(=O)C(Cl)Cl = no (0)
• CCc1cc(C)cc(CC)c1-c1c(OC(=O)C(C)(C)C)n2n(c1=O)CCOCC2 = no (0)
• CCCOC(=O)c1ccccc1C(=O)OCCC = no (0)
• CCCCCCCCCCCC#N = yes (1)
• O=[N+]([O-])c1ccc(Cl)cc1 = no (0)

====

read-out: Interleukin 17A (IL17A), IL17A (gene 3605); experiment: BSK_BT_xIL17A: BioMAP Diversity Plus: BT Assay for Interleukin 17A (IL17A) Biomarker Activity (AID 2284229); conditions: primary human B cells with PBMC
Activity calls are given as the source filed them. Rule for the calls: active = hit-call score of the fitted dose curve at least 0.9, where 1 is the maximum; inactive = score below 0.9.
Possible outcomes: active, inactive

• O=c1c2ccccc2c(=O)c2c1cc(Cl)c1[nH]c3c([nH]c12)c(Cl)cc1c(=O)c2ccccc2c(=O)c13 = inactive
• Cc1ccc(OP(=O)(Oc2ccc(C)cc2)Oc2ccc(C)cc2)cc1 (tested in a mixture with another compound) = active
• CC(C)(C)C(=O)CCl = inactive
• Clc1ccc(-c2ccccc2)cc1 = inactive
• CC(C)CCCCCCCOC(=O)c1ccccc1C(=O)OCCCCCCCC(C)C = inactive
• O=S(=O)(c1ccccc1)c1ccccc1 = inactive
• O=P1(NCCCl)OCCCN1CCCl (stereo unspecified) = inactive
• CCc1cc(C)cc(CC)c1-c1c(OC(=O)C(C)(C)C)n2n(c1=O)CCOCC2 = inactive
• CC(C)(c1cc(Cl)c(O)c(Cl)c1)c1cc(Cl)c(O)c(Cl)c1 = inactive
• C=CC(=O)OCC(CC)CCCC (stereo unspecified) = inactive
• COCC(=O)N(c1c(C)cccc1C)N1CCOC1=O = inactive

====

biological target: Hepatocyte nuclear factor 4-alpha (Homo sapiens) (UniProt P41235); assay: ATG_HNF4a_TRANS: Attagene TRANS-FACTORIAL HepG2 Assay for human Hepatocyte Nuclear Factor 4 alpha (HNF4a) (AID 2282982); conditions: HepG2 HNF4a transactivation reporter, mRNA readout
Sequence (P41235 whole entry, looked up): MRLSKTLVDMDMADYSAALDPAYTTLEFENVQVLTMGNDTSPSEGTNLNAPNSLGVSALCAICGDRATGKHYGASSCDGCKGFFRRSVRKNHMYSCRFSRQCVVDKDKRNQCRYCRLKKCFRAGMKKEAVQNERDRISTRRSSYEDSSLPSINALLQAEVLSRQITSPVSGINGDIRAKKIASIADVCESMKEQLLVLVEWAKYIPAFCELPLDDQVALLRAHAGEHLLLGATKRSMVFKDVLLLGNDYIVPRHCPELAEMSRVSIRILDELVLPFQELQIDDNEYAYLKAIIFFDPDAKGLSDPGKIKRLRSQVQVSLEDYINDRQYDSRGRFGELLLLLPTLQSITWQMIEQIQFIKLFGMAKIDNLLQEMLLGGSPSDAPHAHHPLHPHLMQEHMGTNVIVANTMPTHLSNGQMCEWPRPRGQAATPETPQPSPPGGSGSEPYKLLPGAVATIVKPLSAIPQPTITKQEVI
Inconclusive results are not listed. The source made the active and inactive calls. The calls were made as follows: active = hit-call score of the fitted dose curve at least 0.9, where 1 is the maximum; inconclusive = response in the unintended direction; inactive = score below 0.9.
METRIC: outcome

* O=C(O)C(Br)Br | inactive
* C=C(Cl)CCl | inactive
* O=C(O)c1cc[c]([Hg][Cl])cc1 | inactive
* C=CC(=O)OC | inactive
* CC=Cc1ccc2c(c1)OCO2 | inactive
* Oc1ccc(Cl)cc1 | inactive
* Cc1ccc(N(SC(F)(Cl)Cl)S(=O)(=O)N(C)C)cc1 | inactive
* O=C(CCN1CC1)OCC(CO)(COC(=O)CCN1CC1)COC(=O)CCN1CC1 | inactive
* O=C1C(Cl)=C(Cl)C(=O)C(Cl)=C1Cl | inactive
* CC(C)C#N | inactive
* CN(C)N | inactive
* CC1CCC(=O)O1 (stereo unspecified) | inactive
* CCOP(=O)(OCC)OCC | inactive
* C[C@]12CC[C@H](O)C[C@H]1CC[C@@H]1[C@@H]2C[C@@H](O)[C@]2(C)[C@@H](C3=CC(=O)OC3)CC[C@]12O | inactive
* COc1ncc(F)c2nc(S(=O)(=O)Nc3c(F)cccc3F)nn12 | inactive
* CCCOC(=O)c1ccccc1C(=O)OCCC | inactive
* CCC1CCC(=O)O1 (stereo unspecified) | inactive
* [CH3][Sn]([CH3])([Cl])[Cl] | inactive
* COCC(=O)N(c1c(C)cccc1C)N1CCOC1=O | inactive
* COc1cc(OC)c(OC)cc1C=O | inactive
* c1ccc2c(c1)CCCC2 | inactive
* C[C@]12CC[C@H]3[C@@H](CC[C@@]45O[C@@H]4C(O)=C(C#N)C[C@]35C)[C@@H]1CC[C@@H]2O | inactive
* CC(C)(c1cc(Cl)c(O)c(Cl)c1)c1cc(Cl)c(O)c(Cl)c1 | inactive
* c1cc(OCC2CO2)ccc1Cc1ccc(OCC2CO2)cc1 (stereo unspecified) | inactive
* CN(N=O)c1ccccc1 | inactive
* O=C(O)CCCc1ccc(N(CCCl)CCCl)cc1 | inactive

====

test: BSK_SAg_PBMCCytotoxicity: PBMC Cytotoxicity Assessment in the BioMAP Diversity Plus: SAg Assay (AID 2283093); conditions: primary human HUVEC with PBMC;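 further: PBMC viability measured as Alamar Blue reduction fluorescence at 546/580 nm; fitted both ways against DMSO so a hit may be loss or gain of signal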
Calls of active or inactive are those of the source. How the source made its calls: active means hit-call score of the fitted dose curve at least 0.9, where 1 is the maximum; inactive means score below 0.9.
Possible outcomes: active, inactive

* CCCOC(=O)c1ccccc1C(=O)OCCC | inactive
* Clc1ccc(-c2ccccc2)cc1 | inactive
* O=C(CCl)c1ccccc1 | active
* O=c1[nH]c(Cl)c(Cl)cc1Cl | inactive
* CC(C)(C)C(O)C(Oc1ccc(-c2ccccc2)cc1)n1cncn1 (stereo unspecified) | inactive
* CC(C)COP(=O)(OCC(C)C)OCC(C)C | inactive
* CC(C)(c1cc(Cl)c(O)c(Cl)c1)c1cc(Cl)c(O)c(Cl)c1 | active
* C=CCN(CC=C)C(=O)C(Cl)Cl | inactive
* COc1ccc(CO)cc1 | inactive
* Oc1cc(Cl)ccc1Cl | inactive
* CC(=O)/C=C/c1ccccc1 | inactive
* O=P1(NCCCl)OCCCN1CCCl (stereo unspecified) | inactive
* O=[N+]([O-])O | inactive
* O=C1C(Cl)=C(Cl)C(=O)C(Cl)=C1Cl | active
* O=c1c2ccccc2c(=O)c2c1cc(Cl)c1[nH]c3c([nH]c12)c(Cl)cc1c(=O)c2ccccc2c(=O)c13 | inactive
* C=CC(=O)OCC(CC)CCCC (stereo unspecified) | inactive
* N#CCCCCC#N | inactive
* CC(C)CCCCCCCOP(=O)(Oc1ccccc1)Oc1ccccc1 | active
* c1ccc(Nc2ccc3ccccc3c2)cc1 | inactive
* CC(C)(C)C(=O)CCl | active
* COCC(=O)N(c1c(C)cccc1C)N1CCOC1=O | inactive

====

target: human RAR-related Orphan Receptor gamma (RORg), RORC (gene 6097) (UniProt P51449); experiment: ATG_RORg_TRANS: Attagene TRANS-FACTORIAL HepG2 Assay for human RAR-related Orphan Receptor gamma (RORg) (AID 2283011)
Sequence (P51449 whole entry, looked up): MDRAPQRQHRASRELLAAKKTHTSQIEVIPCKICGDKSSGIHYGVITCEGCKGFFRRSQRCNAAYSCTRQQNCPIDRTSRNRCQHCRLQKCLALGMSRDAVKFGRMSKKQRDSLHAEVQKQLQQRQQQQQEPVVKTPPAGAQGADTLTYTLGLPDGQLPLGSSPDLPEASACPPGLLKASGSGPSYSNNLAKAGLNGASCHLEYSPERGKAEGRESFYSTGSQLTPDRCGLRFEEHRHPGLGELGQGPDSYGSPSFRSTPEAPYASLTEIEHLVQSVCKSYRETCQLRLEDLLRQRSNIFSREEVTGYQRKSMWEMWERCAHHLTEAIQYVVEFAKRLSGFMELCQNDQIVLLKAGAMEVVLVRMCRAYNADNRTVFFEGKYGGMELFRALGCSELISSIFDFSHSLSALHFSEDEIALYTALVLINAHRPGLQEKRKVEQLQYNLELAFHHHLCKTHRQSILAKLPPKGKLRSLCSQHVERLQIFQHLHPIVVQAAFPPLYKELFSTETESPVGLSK
Inconclusive results are not listed. Active and inactive are the calls of the source. How the source made its calls: active means hit-call score of the fitted dose curve at least 0.9, where 1 is the maximum; inconclusive means response in the unintended direction; inactive means score below 0.9.
Possible outcomes: active, inactive

- O=c1[nH]c(Cl)c(Cl)cc1Cl: inactive
- CC(O)CN(CC(C)O)CC(C)O (stereo unspecified): inactive
- [Cl][Sb]([Cl])[Cl]: inactive
- CCC(C)c1cc(C(C)(C)C)cc(-n2nc3ccccc3n2)c1O (stereo unspecified): inactive
- Nc1ccc(-c2ccc(N)c(N)c2)cc1N: inactive
- Oc1ccc(Cl)cc1: inactive
- Nc1ccccc1C(=O)OCCc1ccccc1: inactive
- C=Cc1cccc(CCl)c1: inactive
- O=[N+]([O-])c1ccc(Cl)cc1: inactive
- O=C(CCl)c1ccccc1: active
- O=C(NCNC(=O)NC1C(=O)NC(=O)N1CO)NC1C(=O)NC(=O)N1CO (stereo unspecified): inactive
- ClCC(Cl)Cl: inactive
- COC(C)(C)CCC[C@H](C)C/C=C/C(C)=C/C(=O)OC(C)C: inactive
- Nc1ccc([N+](=O)[O-])cc1N: inactive
- CN(C)CCC#N: inactive
- c1ccc2c(c1)CCCC2: inactive
- Cc1ccccc1CCl: inactive
- c1cc(OCC2CO2)ccc1Cc1ccc(OCC2CO2)cc1 (stereo unspecified): inactive
- N#CCCCl: inactive
- N#CCNCC#N: inactive
- [CH3][Sn]([CH3])([Cl])[Cl]: inactive
- CC1(C)C(=O)NC(=O)NC1=O: inactive
- CCCCCCCCCCCCCCCC[N+](C)(C)C: inactive
- C[N+](C)(C)CC(=O)[O-]: inactive
- COC(=O)COc1ccc(Cl)cc1Cl: inactive
- CCc1cc(C)cc(CC)c1-c1c(OC(=O)C(C)(C)C)n2n(c1=O)CCOCC2: inactive

The measurements presented in this section are drawn from PubChem BioAssay (EPA / NIEHS).
